# Lookup of reported percentage damage caused to the plant, five point scale, ECHCG keyed by entry
# System: Echinochloa crus-galli (ECHCG)
# EXPERIMENT: Post-emergence efficacy, glasshouse pot test
# Type: in vivo
# TEST CONDITIONS: post-emergence application, 250 g/ha, evaluated after 13 days
# Procedure: B1 Post-Emergence Efficacy Seeds of a variety of test species are sown in standard soil in pots:—Solanum nigrum (SOLNI), Amaranthus retoflexus (AMARE), Setaria faberi (SETFA), Alopecurus myosuroides (ALOMY), Echinochloa crus-galli (ECHCG), Ipomoea hederacea (IPOHE), Lolium perenne (LOLPE). […] After 13 days, the test is evaluated for the percentage damage caused to the plant. The biological activities are assessed on a five point scale (5=80-100%; 4=60-79%; 3=40-59%; 2=20-39%; 1=0-19%).
METRIC NAME: percentage damage caused to the plant, five point scale, ECHCG

# STRUCTURE STRING, REPORTED RESULT
data = [
    ("O=c1c(-c2c(Cl)ccc(Cl)c2OCc2cnc(Cl)s2)c(O)c2cccnc2n1CC(F)F", "3 (3=40-59%)"),
    ("C#CCn1c(=O)c(-c2c(Cl)ccc(Cl)c2OCc2cnc(Cl)s2)c(O)c2nccnc21", "5 (5=80-100%)"),
    ("C#CCn1c(=O)c(-c2c(Cl)ccc(Cl)c2OCc2cnc(Cl)s2)c(O)c2c(OC)ccnc21", "5 (5=80-100%)"),
    ("O=c1c(-c2c(Cl)ccc(Cl)c2OCc2cnc(Cl)s2)c(O)c2nccnc2n1CC(F)F", "5 (5=80-100%)"),
    ("C#CCn1c(=O)c(-c2c(Cl)ccc(Cl)c2OCc2cnc(Cl)s2)c(O)c2cccnc21", "3 (3=40-59%)"),
    ("COc1ccnc2c1c(O)c(-c1c(Cl)ccc(Cl)c1OCc1cnc(Cl)s1)c(=O)n2CC(F)F", "5 (5=80-100%)"),
]

----------
# Tested on: Echinochloa crus-galli (ECHCG)
# EXPERIMENT: Post-emergence efficacy, glasshouse pot test
# Format: in vivo
# TEST CONDITIONS: post-emergence application, 1000 g/ha, evaluated after 13 days
METRIC NAME: percentage damage caused to the plant, five point scale, ECHCG

# STRUCTURE STRING, REPORTED RESULT
data = [
    ("C#CCn1c(=O)c(-c2c(Cl)ccc(Cl)c2OCc2cnc(Cl)s2)c(O)c2nccnc21", "5 (5=80-100%)"),
    ("O=c1c(-c2c(Cl)ccc(Cl)c2OCc2cnc(Cl)s2)c(O)c2cccnc2n1CC(F)F", "4 (4=60-79%)"),
    ("COc1ccnc2c1c(O)c(-c1c(Cl)ccc(Cl)c1OCc1cnc(Cl)s1)c(=O)n2CC(F)F", "5 (5=80-100%)"),
    ("O=c1c(-c2c(Cl)ccc(Cl)c2OCc2cnc(Cl)s2)c(O)c2nccnc2n1CC(F)F", "4 (4=60-79%)"),
    ("C#CCn1c(=O)c(-c2c(Cl)ccc(Cl)c2OCc2cnc(Cl)s2)c(O)c2cccnc21", "5 (5=80-100%)"),
    ("C#CCn1c(=O)c(-c2c(Cl)ccc(Cl)c2OCc2cnc(Cl)s2)c(O)c2c(OC)ccnc21", "5 (5=80-100%)"),
]

Data provenance is patent US10292394B2.
